- test-details: Plasma pharmacokinetics and brain distribution after single IV, IP and oral administration
- Format: in vivo
- setup-conditions: male, C57BL/6, mouse, in vivo, ip, 10 mg/kg, Mean brain conc.
Counter-ions that a name gives are not always drawn.
I'd appreciate it if you could supply concentration at 24 h values for the items below.
One number for each entry, in ng/g.

compound	concentration at 24 h / ng/g
Cc1nc2ccccn2c1-c1csc(Nc2ccc3c(c2)OC(F)(F)O3)n1 [Compound 16, hydrochloride]	0
[2H]C([2H])([2H])Oc1ccc(Nc2nc(-c3c(C)nc4ccccn34)cs2)cc1 [Compound 15, hydrochloride]	0

Consider now this further compound.
Enquiry: Fill blank: measured concentration at 24 h of the compound [2H]C1([2H])Oc2ccc(Nc3nc(-c4c(C)nc5ccccn45)cs3)cc2O1 [Compound 17, hydrochloride] is ____.
Return: 0
